Literature pIC50 values, system: Receptor-type tyrosine-protein kinase FLT3 (Homo sapiens).
# measured-target: Receptor-type tyrosine-protein kinase FLT3 (Homo sapiens)
# Sequence (P36888 whole entry): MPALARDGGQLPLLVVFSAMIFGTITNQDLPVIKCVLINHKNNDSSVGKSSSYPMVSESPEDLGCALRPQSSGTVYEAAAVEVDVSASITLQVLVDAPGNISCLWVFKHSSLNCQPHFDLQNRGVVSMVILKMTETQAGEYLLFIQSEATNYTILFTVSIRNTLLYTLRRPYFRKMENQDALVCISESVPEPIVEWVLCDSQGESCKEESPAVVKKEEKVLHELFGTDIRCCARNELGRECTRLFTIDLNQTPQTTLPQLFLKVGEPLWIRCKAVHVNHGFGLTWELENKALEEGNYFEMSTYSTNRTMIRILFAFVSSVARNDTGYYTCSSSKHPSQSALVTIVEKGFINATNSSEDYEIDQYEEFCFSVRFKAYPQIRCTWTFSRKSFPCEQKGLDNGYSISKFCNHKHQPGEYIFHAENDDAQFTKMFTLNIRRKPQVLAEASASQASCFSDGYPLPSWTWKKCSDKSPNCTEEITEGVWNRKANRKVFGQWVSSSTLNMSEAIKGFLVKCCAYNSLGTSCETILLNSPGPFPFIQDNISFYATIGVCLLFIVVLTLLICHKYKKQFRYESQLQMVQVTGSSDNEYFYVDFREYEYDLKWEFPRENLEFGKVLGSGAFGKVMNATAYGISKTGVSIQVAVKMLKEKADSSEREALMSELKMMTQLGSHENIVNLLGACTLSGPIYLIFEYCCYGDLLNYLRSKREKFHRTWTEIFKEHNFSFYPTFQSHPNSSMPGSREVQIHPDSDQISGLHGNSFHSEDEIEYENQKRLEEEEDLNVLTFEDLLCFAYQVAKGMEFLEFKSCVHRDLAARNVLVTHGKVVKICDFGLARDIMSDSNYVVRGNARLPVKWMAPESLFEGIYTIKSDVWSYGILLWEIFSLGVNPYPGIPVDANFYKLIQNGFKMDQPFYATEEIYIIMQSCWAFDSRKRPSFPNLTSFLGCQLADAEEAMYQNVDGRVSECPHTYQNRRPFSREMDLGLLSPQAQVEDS
Answers are plain numbers, as −log10 of the molar value.

# test-smiles, pIC50
data = [
    ("O=Nc1c(-c2c(O)[nH]c3ccccc23)[nH]c2ccccc12", 7.48),
]

Working through the 3 compounds below one at a time, give pIC50 for each.
1. COc1ccc2cc1COC/C=C/COCc1cc(ccc1OCCN1CCCC1)Nc1nccc-2n1
2. Cc1nc(NCCN(C)C)cc(Nc2cc(-c3cccc(NS(=O)(=O)c4ccccc4)c3)n[nH]2)n1
3. COc1ccc(-c2ccc(NC(=O)Nc3cccc(C(F)(F)F)c3)cc2)c2c(N)noc12

[7.04, 7.15, 7.72]

pIC50 of CN(C)S(=O)(=O)c1ccc2c(c1)/C(=C/c1cc3c([nH]1)CCCC3)C(=O)N2 on Receptor-type tyrosine-protein kinase FLT3 (Homo sapiens)?
5.06

====

# measured-target: Receptor-type tyrosine-protein kinase FLT3 (Homo sapiens)
# Sequence (P36888 whole entry): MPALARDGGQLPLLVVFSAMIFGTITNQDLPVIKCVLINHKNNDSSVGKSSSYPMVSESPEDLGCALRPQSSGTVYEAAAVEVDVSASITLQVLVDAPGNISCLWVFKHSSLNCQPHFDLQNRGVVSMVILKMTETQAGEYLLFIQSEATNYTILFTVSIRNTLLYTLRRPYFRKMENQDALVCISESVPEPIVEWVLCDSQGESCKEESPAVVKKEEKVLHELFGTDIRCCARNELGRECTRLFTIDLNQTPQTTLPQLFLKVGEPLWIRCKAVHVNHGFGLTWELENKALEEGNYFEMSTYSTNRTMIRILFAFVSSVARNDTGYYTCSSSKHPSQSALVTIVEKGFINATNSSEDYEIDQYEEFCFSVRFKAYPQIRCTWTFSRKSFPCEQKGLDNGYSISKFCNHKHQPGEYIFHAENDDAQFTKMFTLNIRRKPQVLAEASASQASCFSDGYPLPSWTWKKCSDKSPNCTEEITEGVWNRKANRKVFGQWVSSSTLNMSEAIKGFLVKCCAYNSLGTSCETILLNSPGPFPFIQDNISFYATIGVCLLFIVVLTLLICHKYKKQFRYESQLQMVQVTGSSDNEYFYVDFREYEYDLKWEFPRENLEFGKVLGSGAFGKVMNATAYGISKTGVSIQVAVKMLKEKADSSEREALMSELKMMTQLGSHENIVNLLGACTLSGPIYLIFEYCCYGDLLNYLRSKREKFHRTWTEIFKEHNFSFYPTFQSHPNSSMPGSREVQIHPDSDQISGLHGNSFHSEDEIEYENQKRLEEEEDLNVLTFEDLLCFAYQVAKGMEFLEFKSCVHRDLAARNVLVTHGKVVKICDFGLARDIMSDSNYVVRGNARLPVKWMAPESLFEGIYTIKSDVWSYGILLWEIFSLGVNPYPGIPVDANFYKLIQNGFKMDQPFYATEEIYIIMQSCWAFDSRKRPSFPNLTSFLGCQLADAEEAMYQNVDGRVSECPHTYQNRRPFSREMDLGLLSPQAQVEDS
Kindly find below IC50 information for Receptor-type tyrosine-protein kinase FLT3 (Homo sapiens) taken from the literature.
Response field class: string, computed from recorded IC50 by ranges bottom bin = under 0.009 µM, middle bin = from 0.009 µM up to 0.4 µM, top bin = 0.4 µM and over

Answered cases to consult:
# test-smiles, label
records = [
    ("O=C(NC(=O)c1ccccc1)Nc1ccc2c(c1)NC(=O)/C2=C\\c1ccc[nH]1", "top bin"),
    ("CN1CCN(c2ccc(Nc3[nH]nc4c3-c3ccccc3CC4)cc2)CC1", "top bin"),
    ("Nc1nc(N)c2c(n1)NCCC(c1ccc(NC(=O)Nc3ccccc3)cc1)=N2", "top bin"),
    ("CN1CCN(c2ccc(C(=O)Nc3cc(-c4cccc(NS(=O)(=O)c5cccc(Cl)c5)c4)n[nH]3)cc2)CC1", "bottom bin"),
    ("COc1cccc(NC(=O)Cn2cc(Oc3ncnc4cc(OC)c(OCCN5CCCCC5)cc34)cn2)c1", "middle bin"),
]

Lab note: which band did O=C(c1ccc(F)c(F)c1Nc1ccc(I)cc1F)N1CC(O)([C@@H]2CCCCN2)C1 land in?
top bin

Which class does Cc1cnc2nc1-c1cccc(c1)OCC/C=C/CN(C)Cc1cccc(c1)N2 fall in?
middle bin

Could you place Oc1ccc(-c2ccc3c(-c4ccc(N5CCNCC5)cc4)c[nH]c3c2)cc1 in its proper category? Many thanks.
top bin

Hi, small favor: classify O=C1Nc2ccc([N+](=O)[O-])cc2/C1=C1/Nc2ccc(Br)cc2/C1=N/O by its IC50 when you get a moment.
top bin

Which class holds CN1CCN(Cc2ccc(NC(=O)c3cc(-c4ccc5c(c4)OCO5)cnc3O)cc2)CC1 ?
top bin

Consider O=C1C(c2c(O)[nH]c3ccc(S(=O)(=O)O)cc23)=Nc2ccccc21 . To which IC50 class does it belong?
middle bin

Assign a category based on measured IC50 for O=C1Nc2ccc(F)cc2/C1=C1/Nc2ccccc2/C1=N\OCCNC1CCNCC1 and give only the class name.
middle bin

====

Recorded IC50 for compounds tested on Receptor-type tyrosine-protein kinase FLT3 (Homo sapiens, UniProt P36888), drawn from a number of studies.
Give bare numbers, in nM.

Field: example entries. Status: answers known.
# compound, IC50 / nM
records = [
    ("C=CCCn1cc(-c2ccc(NC(=O)Nc3cc(C(C)(C)C)on3)c(F)c2)c2c(N)ncnc21", 51),
    ("CCn1cc(NC(=O)Cn2cc(Oc3ncnc4cc(OC)c(OC)cc34)cn2)cn1", 4),
    ("CC1=CC(=O)N(Nc2nc(-c3cccs3)nc3scc(-c4ccccc4)c23)C1=O", 208),
    ("CN1CCN(c2ccc(Nc3ncc4c(=O)c(C(N)=O)cn(-c5ccc6c(c5)CCC6)c4n3)cc2)CC1", 3),
    ("COc1ccc2cc(-c3n[nH]c4cccnc34)[nH]c2c1", 60),
]

For every item in the list below, what is its measured IC50?
1. O=C(Nc1ccc(N2CCOCC2)cc1C(F)(F)F)c1cnn2ccc(N[C@@H]3CCNC3)nc12
2. O=C(Nc1ccc(N2CCNCC2)cc1)c1n[nH]cc1Nc1cc(Oc2ccccc2)ncn1
3. CN1CCN(c2ccc(NC(=O)c3cc(-c4ccc5c(c4)OCO5)c[nH]c3=O)cc2)CC1

1. 5.5
2. 0.62
3. 5000

List IC50 for every entry below, keeping the order given.
1. COc1ccc2c(Nc3c[nH]nc3C(=O)Nc3ccc(CN4CCN(C)CC4)cc3)ccnc2c1
2. Cc1ccc2c(c1)/C(=C1/Nc3ccccc3/C1=N\O)C(=O)N2
3. C=CCCn1cc(-c2ccc(NC(=O)Nc3cc(C(C)(C)C)on3)cc2)c2c(N)ncnc21
4. Fc1cc2[nH]ncc2c2c3c(c(-c4c[nH]nc4C(F)(F)F)nc12)C1CCC3C1 (stereo not given)

1: 197; 2: 28; 3: 38; 4: 28
